# assay.remarks: modulators of MEP2-GFP levels in yeast, confirmation, S. cerevisiae, flow cytometry GFP, cherry picks (AID 2272);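 note: ratio of well signal to plate DMSO mean so 100% equals DMSO level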
# condition.description: S. cerevisiae MEP2-GFP strain, 3 h, at 10 µM, stronger effect = higher value
value.type: GFP response vs DMSO (%)
Form entry: value (%) — number only.

What value of GFP response vs DMSO has been reported for the following molecule? COc1ccc(N2CCN(C(=O)CCc3nnc4ccc(N5CCCC5)nn34)CC2)cc1 100

Continue with COc1ccc(-c2sc(C(=O)c3ccc(Cl)cc3Cl)cc2CC(=O)O)cc1 122

Same question, COc1ccc([N+](=O)[O-])c(S(=O)(=O)c2ccc(Cl)cc2)n1 this time 136

Okay, and COC(=O)Nc1c(-c2ccccc2)nc2ccc(C)cn12 ? 102
